Source listed as ChEMBL document CHEMBL3988442.

Tested on: Wolbachia pipientis
EXPERIMENT_DESCRIPTION: Anti-Wolbachia Cell-Based Screen
Format: functional
Parameters: scale not given: in the data most compounds retested in dose-response had high values
PARTICULARS: 5 µM
In all, about 48,000 compounds went through this assay and about 13,000 (27%) showed an effect of 50% or more. The list shows a part of the results.
READOUT_LABEL: Percent Effect (%)
API: value field is a number in %; no unit string.

// known answers, use as guide
COc1cc(CCC(=O)NC2CC2)ccc1OCC(F)(F)F: -6.568
Cc1cc(C)n(CCC(=O)OCC(=O)N2CCc3sccc3C2)n1: 1.296
COCC(=O)NC1CC2(CCN(CCN(C)C)CC2)c2ccccc21 (stereo unspecified): 87.88
CCS(=O)(=O)N1Cc2ccnn2CC(c2nc(C)no2)C1 (stereo unspecified): -5.084
CC(C)C(=O)NC1CC2(CCN(CC(=O)N(C)C)CC2)c2ccccc21.O=C(O)C(F)(F)F (stereo unspecified): 105.8

Incoming: Name the recorded Percent Effect of the compound listed here: COc1ccc(C(C)=O)c(OCC(=O)NC(C)c2ccc(F)cc2)c1 (stereo unspecified)
Outgoing: 9.317

Incoming: Could you please provide reported Percent Effect for CC(=O)c1cc(Br)cc(F)c1OCC(=O)NC1CC1 ? Thanks!
Outgoing: 100.7

Incoming: # return recorded Percent Effect for entry Cc1ccc(C)c(CC(=O)NC2CCC(N3C(=O)CCC3=O)CC2)c1 (stereo unspecified)
Outgoing: 6.752

Incoming: Return value of Percent Effect for input CCN1CCC2(CC1)CC(NC(=O)c1ccnnc1)c1ccccc12.O=C(O)C(F)(F)F (stereo unspecified) , no commentary.
Outgoing: -6.669

Incoming: Supply measured Percent Effect of CNC(=O)NC(=O)COc1c(C(C)=O)ccc(Cl)c1Cl in your reply.
Outgoing: 18.02

Incoming: Answer with the recorded Percent Effect of O=C(COc1ccc(Br)cc1F)Nc1cn[nH]c1 only.
Outgoing: -2.369

---

Tested on: Wolbachia pipientis
EXPERIMENT_DESCRIPTION: Anti-Wolbachia Cell-Based Screen
Assay type: functional
Set-up: scale not given: in the data most compounds retested in dose-response had high values
PARTICULARS: 5 µM
In all, about 48,000 compounds went through this assay and about 13,000 (27%) showed an effect of 50% or more. The list shows a part of the results.
Collected Percent Effect values appear next to each entry.
Express it in %; write the number only.

CC(c1nc(C2CC2)no1)N1CCN(Cc2nnc(C3CC3)o2)CC1 (centres undefined): 142.3

Incoming: Please give the documented Percent Effect of CC(c1cccnc1)N1CCN(CCCC#N)CC1 (centres undefined)
Outgoing: -7.077

Incoming: Answer with the recorded Percent Effect of NC(=O)Nc1cc(Br)cnc1OCC(F)(F)F only.
Outgoing: 3.483

Incoming: Assign Percent Effect to the following record: O=C(CC1CCCO1)NCc1ccc(Br)cc1F (centres undefined)
Outgoing: 3.91

---

Test system: Wolbachia pipientis
EXPERIMENT_DESCRIPTION: Anti-Wolbachia Cell-Based Screen
Type: functional
Set-up: scale not given: in the data most compounds retested in dose-response had high values
PARTICULARS: 5 µM
The campaign covered roughly 48,000 compounds. About 13,000 (27%) showed an effect of 50% or more. The list shows a part of the results.
# Percent Effect >= 20% gives 1 (yes), anything below gives 0 (no)

CCOc1ccc(C2CC(=O)Nc3c2c(=O)nc2sccn32)cc1 (stereo unspecified): 0 (no)
Cn1ccc2cc(CC3COCCN(C(=O)c4ccccn4)C3)ccc21 (stereo unspecified): 1 (yes)
Cn1ccc2cc(CC3COCCN(C(=O)c4cccnc4)C3)ccc21 (stereo unspecified): 1 (yes)
O=C(c1cccnc1)N1CCN2C(=O)N(Cc3ccc(F)cc3)C[C@H]2C1: 0 (no)
Cc1ccc(CN2C[C@@H](C(=O)O)[C@H](c3ccccn3)C2)o1: 0 (no)

Okay, now this molecule:
Incoming: Quick check, Percent Effect >= 20%? CCNC(=O)[C@@H]1C[C@H](N)CN1Cc1ccc(-c2ccccc2C#N)o1
Outgoing: 0 (no)
